The measured values listed here are drawn from paper PMC7317715.

measured-on: NRP1 b1 (Homo sapiens, UniProt O14786)
Sequence (O14786 275-424 limits assumed): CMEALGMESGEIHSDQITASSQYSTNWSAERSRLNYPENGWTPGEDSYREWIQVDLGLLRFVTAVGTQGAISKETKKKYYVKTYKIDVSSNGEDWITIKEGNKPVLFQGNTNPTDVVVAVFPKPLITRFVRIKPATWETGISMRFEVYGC
outcome-measure: Ki (µM)
Return type: number; implicit unit µM.

Item: N=C(N)NCCC[C@H](NC(=O)c1sccc1NS(=O)(=O)c1cc(-c2ccc(CN)cc2)cc2c1OCC2)C(=O)O [EG01377] | Ki: 7.39

* * *

measured-on: NRP1 b1 (Homo sapiens)
Construct: Ligands were evaluated against the NRP1‐b1 domain
Sequence (O14786 275-424 limits assumed): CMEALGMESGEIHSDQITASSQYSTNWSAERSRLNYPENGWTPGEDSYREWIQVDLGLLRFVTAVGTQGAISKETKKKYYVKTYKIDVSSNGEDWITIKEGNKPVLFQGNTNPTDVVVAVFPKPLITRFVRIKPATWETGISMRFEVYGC
method: FP saturation binding / protein titration (dynamic range)
cond: […]; KD derived from the 50% signal maximum
outcome-measure: Kd (nM)
Return type: number; implicit unit nM.

Item: RPARPAR [reference compound] | Kd: 1880

* * *

measured-on: NRP1‐b1 domain (Homo sapiens, UniProt O14786)
Construct: Ligands were evaluated against the NRP1‐b1 domain
method: SPR binding of fluorescent probes to immobilised NRP1-b1
cond: NRP1‐b1 on CM5 chip, 3% DMSO in PBS‐P, 1:1 binding model, read-out: KD (μM, affinity)
outcome-measure: Kd (µM)
Return type: number; implicit unit µM.

Item: RPARPAR [reference compound] | Kd: 69
